# credit: patent US8227612B2

Test system: hyperlipidemia quail
Assay: Lipid-lowering in vivo experiments in hyperlipidemia quail
Conditions: High: 20 mg/kg, oral; blood after four weeks hypercholesterol diet
Listing of recorded H/L by entry.

COMPOUND	H/L
O=C([O-])C[C@H](O)C[C@H](O)/C=C/c1cnc2cc(Cl)c(F)cc2c1Oc1ccc(F)cc1.O=C([O-])C[C@H](O)C[C@H](O)/C=C/c1cnc2cc(Cl)c(F)cc2c1Oc1ccc(F)cc1.[Ca+2] [Compound A14]	1.44
COc1cccc(Sc2cc3ncc(/C=C/[C@@H](O)C[C@@H](O)CC(=O)[O-])c(Sc4cccc(OC)c4)c3cc2F)c1.COc1cccc(Sc2cc3ncc(/C=C/[C@@H](O)C[C@@H](O)CC(=O)[O-])c(Sc4cccc(OC)c4)c3cc2F)c1.[Ca+2] [Compound A5]	1.06

###

Test system: hyperlipidemia quail
Assay: Lipid-lowering in vivo experiments in hyperlipidemia quail
Details: High: 20 mg/kg, oral; blood after four weeks hypercholesterol diet
REPORTED_METRIC: H/L

COMPOUND	REPORTED_METRIC	READING
CC(C)Sc1ccc(-c2cc3c(-c4ccc(SC(C)C)cc4)c(/C=C/[C@@H](O)C[C@@H](O)CC(=O)O)cnc3c(-c3ccc(SC(C)C)cc3)c2-c2ccc(SC(C)C)cc2)cc1 [Compound A1]	H/L	1.54
COc1cccc(Sc2c(/C=C/[C@@H](O)C[C@@H](O)CC(=O)[O-])cnc3cc(Cl)c(F)cc23)c1.COc1cccc(Sc2c(/C=C/[C@@H](O)C[C@@H](O)CC(=O)[O-])cnc3cc(Cl)c(F)cc23)c1.[Ca+2] [Compound A11]	H/L	1.33
CC(C)c1ccc(Sc2cc3ncc(/C=C/[C@@H](O)C[C@@H](O)CC(=O)[O-])c(Sc4ccc(C(C)C)cc4)c3cc2F)cc1.CC(C)c1ccc(Sc2cc3ncc(/C=C/[C@@H](O)C[C@@H](O)CC(=O)[O-])c(Sc4ccc(C(C)C)cc4)c3cc2F)cc1.[Ca+2] [Compound A13]	H/L	1.79
O=C([O-])C[C@H](O)C[C@H](O)/C=C/c1cnc2c(Oc3ccccc3)c(Oc3ccccc3)c(Oc3ccccc3)cc2c1Oc1ccccc1.O=C([O-])C[C@H](O)C[C@H](O)/C=C/c1cnc2c(Oc3ccccc3)c(Oc3ccccc3)c(Oc3ccccc3)cc2c1Oc1ccccc1.[Ca+2] [Compound A9]	H/L	1.54

###

Test system: hyperlipidemia quail
Assay: Lipid-lowering in vivo experiments in hyperlipidemia quail
Conditions: High: 20 mg/kg, oral; blood after four weeks hypercholesterol diet

MOLECULE	H/L
CC(C)c1c(C(=O)Nc2ccccc2)c(-c2ccccc2)c(-c2ccc(F)cc2)n1CC[C@@H](O)C[C@@H](O)CC(=O)O [Atorvastatin, reference compound]	2.19
CC(C)Sc1ccc(-c2c(/C=C/[C@@H](O)C[C@@H](O)CC(=O)[O-])cnc3c(F)c(F)c(F)cc23)cc1.CC(C)Sc1ccc(-c2c(/C=C/[C@@H](O)C[C@@H](O)CC(=O)[O-])cnc3c(F)c(F)c(F)cc23)cc1.[Ca+2]	1.37
O=C([O-])C[C@H](O)C[C@H](O)/C=C/c1cnc2c(F)c(Oc3ccccc3)c(F)cc2c1Oc1ccccc1.O=C([O-])C[C@H](O)C[C@H](O)/C=C/c1cnc2c(F)c(Oc3ccccc3)c(F)cc2c1Oc1ccccc1.[Ca+2]	2.11
O=C([O-])C[C@H](O)C[C@H](O)/C=C/c1cnc2c(F)c(F)c(F)cc2c1Sc1ccc(F)cc1.O=C([O-])C[C@H](O)C[C@H](O)/C=C/c1cnc2c(F)c(F)c(F)cc2c1Sc1ccc(F)cc1.[Ca+2]	2.21
